Test system: SK-MEL-2
Assay: Cytotoxicity against human SK-MEL-2 cells assessed as growth inhibition at 10 uM after 48 hrs by sulphorhodamine B assay
Assay type: functional
Settings: SK-MEL-2, 48 h, read-out: GI
For each entry below, report its inhibition of growth at 10 µM value.

Recorded result, CCSc1nc(N)c2c(-c3ccc(Cl)cc3)c3c(nc2n1)C(C)CCC3 (stereo not drawn) , inhibition of growth at 10 µM: < 10%

Recorded result, COc1ccc(-c2c(C#N)c(N)nc3c2CCCC3C)cc1 (stereo not drawn) , inhibition of growth at 10 µM: < 10%

Recorded result, COc1ccc(-c2c3c(nc4nc[nH]c(=O)c24)C(C)CCC3)cc1 (stereo not drawn) , inhibition of growth at 10 µM: < 10%
